Test system: Escherichia coli IAI1
Assay: fold change of Cadaverine concentration vs plate DMSO controls (fold change (ratio)); higher = more amine produced, active = hit call of the paper (significant change in both replicates, either direction)
Details: incubation time: 27 h, anaerobic, 37 °C
Counter-ions that a name gives are not always drawn.
Entries annotated with measured fold change of Cadaverine concentration
measured-quantity: fold change of Cadaverine concentration

>  <compound>
CN1CCCC(n2nc(Cc3ccc(Cl)cc3)c3ccccc3c2=O)CC1 (stereo unspecified) [Azelastine hydrochloride] (20 µM)

>  <target>
Escherichia coli IAI1

>  <readout-number>
1.01

$$$$
>  <compound>
CN(C)CCN(Cc1cccs1)c1ccccn1 [Methapyrilene hydrochloride] (20 µM)

>  <target>
Escherichia coli IAI1

>  <readout-number>
1.18

$$$$
>  <compound>
COc1ccc(C(Cl)=C(c2ccc(OC)cc2)c2ccc(OC)cc2)cc1 [Chlorotrianisene] (20 µM)

>  <target>
Escherichia coli IAI1

>  <readout-number>
1

$$$$
>  <compound>
CC(=O)N(CC(O)CO)c1c(I)c(C(=O)NCC(O)CO)c(I)c(C(=O)NCC(O)CO)c1I (stereo unspecified) [Iohexol] (20 µM)

>  <target>
Escherichia coli IAI1

>  <readout-number>
0.992

$$$$
>  <compound>
CCCCC[C@H](O)/C=C/[C@H]1[C@H](O)CC(=O)[C@@H]1CCCCCCC(=O)O [Alprostadil] (20 µM)

>  <target>
Escherichia coli IAI1

>  <readout-number>
1.01

$$$$
>  <compound>
CCCCCCOc1ccccc1C(N)=O [Exalamide] (20 µM)

>  <target>
Escherichia coli IAI1

>  <readout-number>
1.03

$$$$
>  <compound>
C#CCN(C)Cc1ccccc1 [Pargyline hydrochloride] (20 µM)

>  <target>
Escherichia coli IAI1

>  <readout-number>
1

$$$$
>  <compound>
CN(C)CC/C=C1\c2ccccc2CSc2ccccc21 [Dosulepin hydrochloride] (20 µM)

>  <target>
Escherichia coli IAI1

>  <readout-number>
1.01

$$$$
>  <compound>
O=C1CN2Cc3c(ccc(Cl)c3Cl)N=C2N1 [Anagrelide] (20 µM)

>  <target>
Escherichia coli IAI1

>  <readout-number>
1.16

$$$$
>  <compound>
Cc1ncc([N+](=O)[O-])n1C [Dimetridazole] (20 µM)

>  <target>
Escherichia coli IAI1

>  <readout-number>
1.07

$$$$
>  <compound>
CC(C)(C)NCC(O)CSc1nc(-c2ccc(C(N)=O)s2)cs1 (stereo unspecified) [Arotinolol hydrochloride] (20 µM)

>  <target>
Escherichia coli IAI1

>  <readout-number>
0.928

$$$$
>  <compound>
CCCCOC(=O)c1ccc(N)cc1 [Butamben] (20 µM)

>  <target>
Escherichia coli IAI1

>  <readout-number>
1.01

$$$$
>  <compound>
Cc1ccc(C(=O)c2cc(O)c(O)c([N+](=O)[O-])c2)cc1 [Tolcapone] (20 µM)

>  <target>
Escherichia coli IAI1

>  <readout-number>
0.981

$$$$
>  <compound>
COc1cc2nc(N3CCN(C(=O)c4ccco4)CC3)nc(N)c2cc1OC [Prazosin hydrochloride] (20 µM)

>  <target>
Escherichia coli IAI1

>  <readout-number>
0.968

$$$$
>  <compound>
CCC(=O)O[C@]1(C(=O)CCl)[C@@H](C)C[C@H]2[C@@H]3CCC4=CC(=O)C=C[C@]4(C)[C@@]3(F)[C@@H](O)C[C@@]21C [Clobetasol propionate] (20 µM)

>  <target>
Escherichia coli IAI1

>  <readout-number>
1.01

$$$$
>  <compound>
CCCCCCCC/C=C\CCCCCCCCCCCC(=O)O [Erucic acid] (20 µM)

>  <target>
Escherichia coli IAI1

>  <readout-number>
1.06

$$$$
>  <compound>
C[C@H]1O[C@H](O[C@H]2[C@H](O)[C@@H](O)[C@@H](O[C@@H]([C@H](O)[C@@H](O)C=O)[C@H](O)CO)O[C@@H]2CO)[C@H](O)[C@@H](O)[C@@H]1N[C@H]1C=C(CO)[C@@H](O)[C@H](O)[C@H]1O [Acarbose] (20 µM)

>  <target>
Escherichia coli IAI1

>  <readout-number>
1.12

$$$$
>  <compound>
NC(CO)C(=O)NNCc1ccc(O)c(O)c1O (stereo unspecified) [Benserazide hydrochloride] (20 µM)

>  <target>
Escherichia coli IAI1

>  <readout-number>
0.994

$$$$
>  <compound>
COc1ccc(/C=C/C(=O)Nc2ccccc2C(=O)O)cc1OC [Tranilast] (20 µM)

>  <target>
Escherichia coli IAI1

>  <readout-number>
0.995

$$$$
>  <compound>
CCN(CC)C(=S)SSC(=S)N(CC)CC [Disulfiram] (20 µM)

>  <target>
Escherichia coli IAI1

>  <readout-number>
0.969

$$$$
>  <compound>
COc1ccc(C[C@@H]2c3cc(OC)c(OC)cc3CC[N@+]2(C)CCC(=O)OCCCCCOC(=O)CC[N@@+]2(C)CCc3cc(OC)c(OC)cc3[C@H]2Cc2ccc(OC)c(OC)c2)cc1OC [Cisatracurium besylate] (20 µM)

>  <target>
Escherichia coli IAI1

>  <readout-number>
0.944

$$$$
>  <compound>
CCN(CC)CCNC(=O)c1cc(S(C)(=O)=O)ccc1OC [Tiapride hydrochloride] (20 µM)

>  <target>
Escherichia coli IAI1

>  <readout-number>
1.03

$$$$
>  <compound>
COc1ccc2[nH]c([S+]([O-])Cc3ncc(C)c(OC)c3C)nc2c1 (stereo unspecified) [Omeprazole] (20 µM)

>  <target>
Escherichia coli IAI1

>  <readout-number>
1

$$$$
>  <compound>
O=S(=O)(O)NC1CCCCC1 [Cyclamic acid] (50 µM)

>  <target>
Escherichia coli IAI1

>  <readout-number>
0.989

$$$$
>  <compound>
CN(C)CCCN1c2ccccc2CCc2ccccc21 [Imipramine hydrochloride] (20 µM)

>  <target>
Escherichia coli IAI1

>  <readout-number>
0.976

$$$$
>  <compound>
CC(=O)CC(c1ccccc1)c1c(O)c2ccccc2oc1=O (stereo unspecified) (20 µM)

>  <target>
Escherichia coli IAI1

>  <readout-number>
0.995

$$$$
>  <compound>
Cc1c(NC(C)C)c(=O)n(-c2ccccc2)n1C [Isopyrin hydrochloride] (20 µM)

>  <target>
Escherichia coli IAI1

>  <readout-number>
1.02

$$$$
>  <compound>
CCOC(=O)O[C@]1(C(=O)COC(=O)CC)CC[C@H]2[C@@H]3CCC4=CC(=O)C=C[C@]4(C)[C@H]3[C@@H](O)C[C@@]21C [Prednicarbate] (20 µM)

>  <target>
Escherichia coli IAI1

>  <readout-number>
1.01

$$$$
>  <compound>
OCCN1CCN(CCCN2c3ccccc3Sc3ccc(C(F)(F)F)cc32)CC1 [Fluphenazine dihydrochloride] (20 µM)

>  <target>
Escherichia coli IAI1

>  <readout-number>
1.11

$$$$
>  <compound>
NS(=O)(=O)c1cc(C(=O)O)cc(N2CCCC2)c1Oc1ccccc1 [Piretanide] (20 µM)

>  <target>
Escherichia coli IAI1

>  <readout-number>
1.06

$$$$
>  <compound>
O=C(O)Cc1sc(-c2ccccc2)nc1-c1ccc(Cl)cc1 [Fentiazac] (20 µM)

>  <target>
Escherichia coli IAI1

>  <readout-number>
0.966

$$$$
